The compounds listed here are annotated with their IC90.
# Test system: Acinetobacter baumannii ATCC17961
# test-details: Antimicrobial susceptibility testing: 90% growth inhibitory concentration (IC90) determination
# Type: cell-based
# assay-setup: Acinetobacter baumannii, ATCC17961, 16 h, read-out: ATCC 17961 IC90, Acinetobacter baumannii ATCC17961; Iso-Sensitest broth; growth by OD 600 nm over 16 h; 35±2° C.
Where a name gives a salt, the structure may show the parent alone.
Give a bare numeral; the unit nM is implied.

compound=Cn1c(-c2ccc(OC(F)F)c(F)c2F)cnc1C(=O)Nc1ccc(C(=O)N2CCN(C(=O)C[N+]3(C)CCNCC3)CC2)c(Cl)c1 property_name=IC90 number=63

Recorded IC90 (compound COc1ccc(-c2cnc(C(=O)Nc3ccc(C(=O)N4CCN(C(=O)[C@@H]5C[C@@H](O)C[N+]5(C)C)CC4)c(Cl)c3)n2C)c(C(F)F)c1F [Example B40, formate] ): 260

Documented IC90 of Cn1c(-c2ccc(OCC#N)c(F)c2F)cnc1C(=O)Nc1ccc(C(=O)N2CCN(C(=O)C[N+](C)(C)C)CC2)c(Cl)c1 : 93

Field IC90 (entry COc1ccc(-c2cnc(C(=O)Nc3ccc(C(=O)N4CCN(C(=O)NC5C[N+](C)(C)CC5O)CC4)c(Cl)c3)n2C)c(F)c1F (centres unmarked) [Example B39, formate] ) reads 110

----------
A collection of molecules and their measured IC90
# Tested on: Acinetobacter baumannii ATCC17961
# test-details: Antimicrobial susceptibility testing: 90% growth inhibitory concentration (IC90) determination
# Format: cell-based
# assay-setup: Acinetobacter baumannii ATCC17961; Iso-Sensitest broth; growth by OD 600 nm over 16 h; 35±2° C.; read-out: ATCC 17961 IC90
Structures can show the parent of a compound that is named as a salt.
Express your answer in nM, writing the number without its unit.

The following molecules have reported results that may help.
molecule="COc1ccc(-c2cnc(C(=O)Nc3ccc(C(=O)N4CCN(CC[N+](C)(C)C)CC4)c(Cl)c3)n2C)c(F)c1F [Example A9]" number=130
molecule="COc1ccc(-c2cnc(C(=O)Nc3ccc(C(=O)N4CCC(C(=O)NCc5cnc(NC(=O)C6CC[N+](C)(C)CC6)s5)CC4)c(Cl)c3)n2C)c(F)c1F [Example A31]" number=170
molecule="COc1ccc(-c2cnc(C(=O)Nc3ccc(C(=O)N4CCC(NC(=O)[C@@H]5C[C@@H](O)C[N+]5(C)C)CC4)c(Cl)c3)n2C)c(F)c1F [Example C43]" number=290

get_value(item= Cn1c(-c2ccc(OC(F)F)c(F)c2F)cnc1C(=O)Nc1ccc(C(=O)N2CCN(C(=O)C3CC[N+](C)(CC4CNC4)CC3)CC2)c(F)c1 (stereo not drawn) [Example C42] , readout=IC90) returns 100

Given item COc1ccc(-c2cnc(C(=O)Nc3ccc(C(=O)N4CCN(C(=O)CC5CC[N+](C)(C)C5)CC4)c(Cl)c3)n2C)c(F)c1F (stereo not drawn) [Example B13, formate] , the value recorded as its IC90 is 68

The recorded IC90 for Cn1c(-c2ccc(OC(F)F)cc2F)cnc1C(=O)Nc1ccc(C(=O)N2CCN(C(=O)C[N+](C)(C)C)CC2)c(Cl)c1 [Example B11] is 150

----------
Entries annotated with measured IC90
# System: Acinetobacter baumannii ATCC17961
# test-details: Antimicrobial susceptibility testing: 90% growth inhibitory concentration (IC90) determination
# Format: cell-based
# assay-setup: Acinetobacter baumannii ATCC17961; Iso-Sensitest broth; growth by OD 600 nm over 16 h; 35±2° C.; read-out: ATCC 17961 IC90
Write the value in nM as a bare number.

Guide cases for IC90, answers given:
molecule=COc1ccc(-c2cnc(C(=O)Nc3ccc(C(=O)NCc4cn(CCO)[n+](C)c4)c(Cl)c3)n2C)c(F)c1F tgt="Acinetobacter baumannii ATCC17961" property_name=IC90 number=320
molecule="COc1ccc(-c2cnc(C(=O)Nc3ccc(C(=O)N4CCN(C(=O)CC[N+](C)(C)CC(N)=O)CC4)c(C)c3)n2C)c(F)c1F [Example B3, 2,2,2-trifluoroacetate]" tgt="Acinetobacter baumannii ATCC17961" property_name=IC90 number=190
molecule="Cn1c(-c2ccc(OC(F)F)c(F)c2F)cnc1C(=O)Nc1ccc(C(=O)N2CCN(C(=O)C3CC[N+](C)(CC(N)=O)CC3)CC2)c(Cl)c1 (stereo not drawn)" tgt="Acinetobacter baumannii ATCC17961" property_name=IC90 number=34
molecule="CCc1cc(NC(=O)c2ncc(-c3ccc(OC(F)F)c(F)c3F)n2C)ccc1C(=O)N1CCN(C(=O)C2CC[N+](C)(CC3CCNC3)CC2)CC1 (stereo not drawn)" tgt="Acinetobacter baumannii ATCC17961" property_name=IC90 number=220

Memo: COc1ccc(-c2cnc(C(=O)Nc3ccc(C(=O)NCc4cn(CCC#N)[n+](C)c4)c(Cl)c3)n2C)c(F)c1F , reported IC90: 390

Looking up CCc1cc(NC(=O)c2ncc(-c3ccc(OC)c(F)c3F)n2C)ccc1C(=O)N1CCN(CCC[N+](C)(C)C)CC1 , I see its IC90 listed as 1500

----------
# Test system: Acinetobacter baumannii ATCC17961
# test-details: Antimicrobial susceptibility testing: 90% growth inhibitory concentration (IC90) determination
# Format: cell-based
# assay-setup: Acinetobacter baumannii, ATCC17961, 16 h, read-out: ATCC 17961 IC90, Acinetobacter baumannii ATCC17961; Iso-Sensitest broth; growth by OD 600 nm over 16 h; 35±2° C.
Structures can show the parent of a compound that is named as a salt.
Each entry below carries its recorded IC90.

IC90 for COc1ccc(-c2cnc(C(=O)Nc3ccc(C(=O)N4CCN(C(=O)[C@@H]5C[C@@H](O)C[N+]5(C)C)CC4)c(Cl)c3)n2C)c(Cl)c1F [Example B43, formate] is 120 nM

Looking up Cn1c(-c2ccc(OC(F)F)c(F)c2Cl)cnc1C(=O)Nc1ccc(C(=O)N2CCN(C(=O)C3CC[N+](CC(N)=O)(CC4CNC4)CC3)CC2)c(Cl)c1 (stereo not drawn) , I found its IC90 recorded as 100 nM

Reported IC90 for COc1ccc(-c2cnc(C(=O)Nc3ccc(C(=O)N4CCN(C(=O)[C@@H]5C[C@H](O)CC[N+]5(C)C)CC4)c(Cl)c3)n2C)c(F)c1F [Example B38, formate] was 180 nM

----------
Reported IC90 values for the following compounds.
# System: Acinetobacter baumannii ATCC17961
# test-details: Antimicrobial susceptibility testing: 90% growth inhibitory concentration (IC90) determination
# Assay type: cell-based
# assay-setup: Acinetobacter baumannii ATCC17961; Iso-Sensitest broth; growth by OD 600 nm over 16 h; 35±2° C.; read-out: ATCC 17961 IC90
Structures can show the parent of a compound that is named as a salt.

Record excerpt, results attached:
compound="CCc1cc(NC(=O)c2ncc(-c3ccc(OC(F)F)c(F)c3F)n2C)ccc1C(=O)N1CCN(C(=O)C2CC[N+](C)(CC3CCNCC3)CC2)CC1 (stereo not drawn) [Example C20]" property_name=IC90 result="80 nM"
compound="Cc1cc(NC(=O)c2ncc(-c3ccc(OCC#N)c(F)c3F)n2C)ccc1C(=O)N1CCN(C(=O)N[C@@H]2C[N+](C)(C)C[C@H]2O)CC1 [Example B28, formate]" property_name=IC90 result="220 nM"
compound="Cn1c(-c2ccc(OC(F)F)c(F)c2Cl)cnc1C(=O)Nc1ccc(C(=O)N2CCN(C(=O)C3CC[N+](C)(CCN)CC3)CC2)c(Cl)c1 (stereo not drawn) [Example C12]" property_name=IC90 result="43 nM"
compound="Cn1c(-c2ccc(OCC#N)c(F)c2F)cnc1C(=O)Nc1ccc(C(=O)N2CCC(C(=O)N[C@H]3CC[N+](C)(C)C3)CC2)c(Cl)c1 [Example B24, formate]" property_name=IC90 result="120 nM"

Recorded result, COc1ccc(-c2cnc(C(=O)Nc3ccc(C(=O)NCc4cnc(NC(=O)[C@@H]5C[C@@H](O)C[N+]5(C)C)s4)c(Cl)c3)n2C)c(F)c1F [Example A27, formate] , IC90: 56 nM

COc1ccc(-c2cnc(C(=O)Nc3ccc(C(=O)N4CC(NC(=O)C5CC[N+](C)(C)CC5)C4)c(Cl)c3)n2C)c(F)c1F [Example B17, formate] has a reported IC90 of 250 nM

----------
# Test system: Acinetobacter baumannii ATCC17961
# test-details: Antimicrobial susceptibility testing: 90% growth inhibitory concentration (IC90) determination
# Format: cell-based
# assay-setup: Acinetobacter baumannii ATCC17961; Iso-Sensitest broth; growth by OD 600 nm over 16 h; 35±2° C.; read-out: ATCC 17961 IC90
Structures can show the parent of a compound that is named as a salt.
property-name: IC90 (nM)
Field: numeric (nM). Do not append units.

compound="Cn1c(-c2ccc(OC(F)F)c(F)c2F)cnc1C(=O)Nc1ccc(C(=O)N2CCN(C(=O)[C@H]3[C@@H]4C[N+](C)(CC(N)=O)C[C@@H]43)CC2)c(Cl)c1 (mixture of isomers) [Example C4]" tgt="Acinetobacter baumannii ATCC17961" reading_unit=nM number=31
compound="COc1ccc(-c2cnc(C(=O)Nc3ccc(C(=O)N4CCN(C(=O)C[N+]5(C)CCOCC5)CC4)c(Cl)c3)n2C)c(F)c1F [Example C27]" tgt="Acinetobacter baumannii ATCC17961" reading_unit=nM number=120
compound="COc1ccc(-c2cnc(C(=O)Nc3ccc(C(=O)N4CCN(C(=O)C[N+](C)(C)CC(N)=O)CC4)c(Cl)c3)n2C)c(F)c1F [Example B7, formate]" tgt="Acinetobacter baumannii ATCC17961" reading_unit=nM number=99

The compound listed as Cc1cc(NC(=O)c2ncc(-c3ccc(OCC#N)c(F)c3F)n2C)ccc1C(=O)N1CCN(C(=O)C[N+](C)(C)CC(N)=O)CC1 [Example B2] shows IC90 equal to 230

Note to self: IC90 recorded for COc1ccc(-c2cnc(C(=O)Nc3ccc(C(=O)N4CCC(CC[N+](C)(C)C)CC4)c(Cl)c3)n2C)c(F)c1F [Example A1] was 79

Kindly note the recorded IC90 for Cn1c(-c2ccc(OCC#N)c(F)c2F)cnc1C(=O)Nc1ccc(C(=O)NCCOCC[N+](C)(C)CC(N)=O)c(Cl)c1 [Example A13, formate] , which is 640
